// data source = ChEMBL document CHEMBL3877252

Consider the following molecules; for each one, report its inhibition.
Biological target: DNA topoisomerase 1 (Homo sapiens) (UniProt P11387)
Sequence (whole entry): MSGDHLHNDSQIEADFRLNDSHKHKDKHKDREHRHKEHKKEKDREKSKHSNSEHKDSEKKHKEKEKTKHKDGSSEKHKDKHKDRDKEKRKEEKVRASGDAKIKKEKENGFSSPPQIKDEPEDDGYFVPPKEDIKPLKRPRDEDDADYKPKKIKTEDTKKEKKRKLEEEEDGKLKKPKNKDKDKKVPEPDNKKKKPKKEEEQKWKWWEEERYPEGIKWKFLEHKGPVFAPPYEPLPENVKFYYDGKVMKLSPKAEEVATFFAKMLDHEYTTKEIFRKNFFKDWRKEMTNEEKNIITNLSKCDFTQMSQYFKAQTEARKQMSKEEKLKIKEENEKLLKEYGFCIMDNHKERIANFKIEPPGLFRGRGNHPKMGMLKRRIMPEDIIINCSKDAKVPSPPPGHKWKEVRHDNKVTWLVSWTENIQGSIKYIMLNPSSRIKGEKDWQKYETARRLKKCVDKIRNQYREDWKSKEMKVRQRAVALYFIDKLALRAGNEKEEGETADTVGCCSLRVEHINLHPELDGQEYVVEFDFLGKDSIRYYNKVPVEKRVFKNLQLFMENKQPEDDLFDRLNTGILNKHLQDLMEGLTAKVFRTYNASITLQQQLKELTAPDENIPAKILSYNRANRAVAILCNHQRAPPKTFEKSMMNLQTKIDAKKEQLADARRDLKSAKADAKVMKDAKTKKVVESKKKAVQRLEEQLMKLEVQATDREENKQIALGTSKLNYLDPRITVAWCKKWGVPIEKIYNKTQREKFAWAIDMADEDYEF
Assay: Inhibition of human topoisomerase-1 assessed as inhibition of relaxation of supercoiled pBR322 plasmid DNA at 20 uM measured after 1 hr by ethidium bromide staining based agarose gel electrophoresis relative to control
Phrase the answer as number then unit, nothing more needed.

# molecule CCOc1ccc2c(c1)Oc1cc(OC(=O)c3ccccc3)ccc1C21c2ccccc2C(=O)N1/N=C/c1ccccc1[N+](=O)[O-] (configuration not stated) ; its inhibition = 0%

GET /value?item= CCOc1ccc2c(c1)Oc1cc(OC(=O)c3ccccc3Cl)ccc1C21c2ccccc2C(=O)N1/N=C/c1ccc(OC)c(OC(=O)c2ccccc2Cl)c1 (configuration not stated) &field=inhibition returns 1.7%

// CCOc1ccc2c(c1)Oc1cc(O)ccc1C21c2ccccc2C(=O)N1/N=C/c1ccc(O)cc1 (configuration not stated) : inhibition value = 0%

Reported inhibition ( CCOc1ccc2c(c1)Oc1cc(OC(=O)c3ccccc3OC)ccc1C21c2ccccc2C(=O)N1/N=C/c1ccc(OC)c(OC(=O)c2ccccc2OC)c1 (configuration not stated) ) = 13.9%

// field: inhibition; key: CCOc1ccc2c(c1)Oc1cc(OC(=O)c3ccccc3[N+](=O)[O-])ccc1C21c2ccccc2C(=O)N1/N=C/c1ccccc1OC (configuration not stated) ; value = 34.4%

The reported value for CCOc1ccc2c(c1)Oc1cc(OC(=O)c3ccccc3Cl)ccc1C21c2ccccc2C(=O)N1/N=C/c1ccccc1OC (configuration not stated) in terms of inhibition is 30%

Lab note: CCOc1ccc2c(c1)Oc1cc(OC(=O)c3ccccc3)ccc1C21c2ccccc2C(=O)N1/N=C/c1ccc(Cl)cc1Cl (configuration not stated) gave inhibition of 2.5%

###

Assignment: determine reported inhibition for the given compounds.
Target: DNA topoisomerase 2-alpha (Homo sapiens)
Assay: Inhibition of human topoisomerase-2 alpha assessed as inhibition of relaxation of supercoiled pBR322 plasmid DNA at 100 uM measured after 1 hr by ethidium bromide staining based agarose gel electrophoresis relative to control

inhibition reported for this compound CCOc1ccc2c(c1)Oc1cc(OC(=O)c3ccccc3OC)ccc1C21c2ccccc2C(=O)N1/N=C/c1ccc(Cl)cc1Cl (stereo not drawn) : 25%

Memo: CCOc1ccc2c(c1)Oc1cc(OC(=O)c3ccccc3Cl)ccc1C21c2ccccc2C(=O)N1/N=C/c1ccc(OC)c(OC(=O)c2ccccc2Cl)c1 (stereo not drawn) , reported inhibition: 4.8%

The compound listed as CCOc1ccc2c(c1)Oc1cc(OC(=O)c3ccccc3[N+](=O)[O-])ccc1C21c2ccccc2C(=O)N1/N=C/c1ccc(Cl)cc1 (stereo not drawn) shows inhibition equal to 10.8%

###

Target: DNA topoisomerase 2-alpha (Homo sapiens)
Test: Inhibition of human topoisomerase-2 alpha assessed as inhibition of relaxation of supercoiled pBR322 plasmid DNA at 100 uM measured after 1 hr by ethidium bromide staining based agarose gel electrophoresis relative to control
observable: inhibition (%)
Give your result in % as a bare value.

The compound CCOc1ccc2c(c1)Oc1cc(OC(=O)c3ccccc3)ccc1C21c2ccccc2C(=O)N1/N=C/c1ccccc1[N+](=O)[O-] (configuration not stated) showed inhibition equal to 6.1

What the record says about CCOc1ccc2c(c1)Oc1cc(OC(=O)c3ccccc3Cl)ccc1C21c2ccccc2C(=O)N1/N=C/c1ccccc1[N+](=O)[O-] (configuration not stated) : inhibition is 5.4

Value of measured inhibition for the entry CCOc1ccc2c(c1)Oc1cc(OC(=O)c3ccccc3OC)ccc1C21c2ccccc2C(=O)N1/N=C/c1ccc(OC)cc1 (configuration not stated) : 4.8

response.value for CCOc1ccc2c(c1)Oc1cc(OC(=O)c3ccccc3)ccc1C21c2ccccc2C(=O)N1/N=C/c1ccc(OC(=O)c2ccccc2)cc1 (configuration not stated) (field: inhibition) = 7.9

// sample CCOc1ccc2c(c1)Oc1cc(OC(=O)c3ccccc3OC)ccc1C21c2ccccc2C(=O)N1/N=C/c1ccccc1OC (configuration not stated) , its inhibition was 8.1

Item: CCOc1ccc2c(c1)Oc1cc(OC(=O)c3ccccc3)ccc1C21c2ccccc2C(=O)N1/N=C/c1ccc(Cl)cc1 (configuration not stated) | inhibition: 7

The compound CCOc1ccc2c(c1)Oc1cc(OC(=O)c3ccccc3)ccc1C21c2ccccc2C(=O)N1/N=C/c1cccc(OC(=O)c2ccccc2)c1 (configuration not stated) showed inhibition equal to 6.7

###

Molecular target: DNA topoisomerase 1 (Homo sapiens)
Sequence (whole entry): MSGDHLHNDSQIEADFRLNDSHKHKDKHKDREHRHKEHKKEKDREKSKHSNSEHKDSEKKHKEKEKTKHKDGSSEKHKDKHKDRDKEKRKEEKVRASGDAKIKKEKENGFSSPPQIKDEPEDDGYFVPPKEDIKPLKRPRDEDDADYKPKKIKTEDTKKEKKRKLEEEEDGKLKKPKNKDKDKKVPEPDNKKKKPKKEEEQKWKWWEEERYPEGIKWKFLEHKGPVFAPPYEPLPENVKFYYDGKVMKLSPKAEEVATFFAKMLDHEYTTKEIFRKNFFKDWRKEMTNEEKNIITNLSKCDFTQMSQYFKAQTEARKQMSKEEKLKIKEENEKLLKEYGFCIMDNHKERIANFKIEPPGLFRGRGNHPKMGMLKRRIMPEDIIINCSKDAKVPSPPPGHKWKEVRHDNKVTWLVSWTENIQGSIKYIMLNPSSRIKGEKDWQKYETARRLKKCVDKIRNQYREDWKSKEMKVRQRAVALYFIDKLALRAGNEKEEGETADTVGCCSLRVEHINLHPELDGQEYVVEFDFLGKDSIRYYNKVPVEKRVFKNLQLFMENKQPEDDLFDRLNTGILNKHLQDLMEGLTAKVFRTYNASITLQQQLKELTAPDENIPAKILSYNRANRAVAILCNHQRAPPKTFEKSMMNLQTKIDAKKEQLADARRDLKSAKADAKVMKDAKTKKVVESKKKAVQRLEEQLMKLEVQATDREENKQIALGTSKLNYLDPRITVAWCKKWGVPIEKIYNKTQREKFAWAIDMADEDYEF
Assay: Inhibition of human topoisomerase-1 assessed as inhibition of relaxation of supercoiled pBR322 plasmid DNA at 20 uM measured after 1 hr by ethidium bromide staining based agarose gel electrophoresis relative to control
observable: inhibition (%)
Please respond with the number in % and leave the unit unwritten.

Note to self: inhibition recorded for CCOc1ccc2c(c1)Oc1cc(OC(=O)c3ccccc3OC)ccc1C21c2ccccc2C(=O)N1/N=C/c1ccc(OC)cc1 (centres undefined) was 17.3

// inhibition lookup, compound = CCOc1ccc2c(c1)Oc1cc(OC(=O)c3ccccc3)ccc1C21c2ccccc2C(=O)N1/N=C/c1ccc(OC)c(OC(=O)c2ccccc2)c1 (centres undefined) , result: 72

Consider CCOc1ccc2c(c1)Oc1cc(OC(=O)c3ccccc3OC)ccc1C21c2ccccc2C(=O)N1/N=C/c1ccc(Cl)cc1Cl (centres undefined) . Its measured inhibition is 10

Entry CCOc1ccc2c(c1)Oc1cc(O)ccc1C21c2ccccc2C(=O)N1/N=C/c1ccc(OC)c(O)c1 (centres undefined) — recorded inhibition = 4.2

###

Target: DNA topoisomerase 2-alpha (Homo sapiens)
Experiment: Inhibition of human topoisomerase-2 alpha assessed as inhibition of relaxation of supercoiled pBR322 plasmid DNA at 100 uM measured after 1 hr by ethidium bromide staining based agarose gel electrophoresis relative to control
So I've got a bunch of compounds here, and I need their inhibition values.
Unit % implied. Number only.

Entry CCOc1ccc2c(c1)Oc1cc(O)ccc1C21c2ccccc2C(=O)N1/N=C/c1ccc(Cl)cc1Cl (centres undefined) — recorded inhibition = 80

Lab book: inhibition of CCOc1ccc2c(c1)Oc1cc(OC(=O)c3ccccc3Cl)ccc1C21c2ccccc2C(=O)N1/N=C/c1ccc(OC)cc1 (centres undefined) noted as 5.6

GET /value?item= CCOc1ccc2c(c1)Oc1cc(O)ccc1C21c2ccccc2C(=O)N1/N=C/c1cccc(O)c1 (centres undefined) &field=inhibition returns 89.3

Item: CCOc1ccc2c(c1)Oc1cc(OC(=O)c3ccccc3)ccc1C21c2ccccc2C(=O)N1/N=C/c1ccc(Cl)cc1Cl (centres undefined) | inhibition: 25.3

Note to self: inhibition recorded for CCOc1ccc2c(c1)Oc1cc(O)ccc1C21c2ccccc2C(=O)N1/N=C/c1ccc(OC)c(O)c1 (centres undefined) was 37.9

Memo: CCOc1ccc2c(c1)Oc1cc(OC(=O)c3ccccc3[N+](=O)[O-])ccc1C21c2ccccc2C(=O)N1/N=C/c1ccc(Cl)cc1Cl (centres undefined) , reported inhibition: 83.8

inhibition in this record for CCOc1ccc2c(c1)Oc1cc(OC(=O)c3ccccc3OC)ccc1C21c2ccccc2C(=O)N1/N=C/c1cccc(OC(=O)c2ccccc2OC)c1 (centres undefined) : 2.8

The compound listed as CCOc1ccc2c(c1)Oc1cc(OC(=O)c3ccccc3)ccc1C21c2ccccc2C(=O)N1/N=C/c1ccccc1OC(=O)c1ccccc1 (centres undefined) shows inhibition equal to 21.5

Looking up CCOc1ccc2c(c1)Oc1cc(OC(=O)c3ccccc3[N+](=O)[O-])ccc1C21c2ccccc2C(=O)N1/N=C/c1ccc(OC)cc1 (centres undefined) , I see its inhibition listed as 6

Form: compound = CCOc1ccc2c(c1)Oc1cc(OC(=O)c3ccccc3Cl)ccc1C21c2ccccc2C(=O)N1/N=C/c1cccc(OC(=O)c2ccccc2Cl)c1 (centres undefined) ; inhibition = 7

Input CCOc1ccc2c(c1)Oc1cc(OC(=O)c3ccccc3)ccc1C21c2ccccc2C(=O)N1/N=C/c1ccc(OC)cc1 (centres undefined) . Output inhibition: 5.4

Reported inhibition for CCOc1ccc2c(c1)Oc1cc(OC(=O)c3ccccc3)ccc1C21c2ccccc2C(=O)N1/N=C/c1ccccc1OC (centres undefined) was 6.9

For record CCOc1ccc2c(c1)Oc1cc(O)ccc1C21c2ccccc2C(=O)N1/N=C/c1ccccc1O (centres undefined) the listed inhibition is 78.7

// CCOc1ccc2c(c1)Oc1cc(OC(=O)c3ccccc3OC)ccc1C21c2ccccc2C(=O)N1/N=C/c1ccc(OC(=O)c2ccccc2OC)cc1 (centres undefined) : inhibition value = 11.4

Per the records, this compound ( CCOc1ccc2c(c1)Oc1cc(OC(=O)c3ccccc3[N+](=O)[O-])ccc1C21c2ccccc2C(=O)N1/N=C/c1ccccc1[N+](=O)[O-] (centres undefined) ) has inhibition equal to 7.5

Query CCOc1ccc2c(c1)Oc1cc(OC(=O)c3ccccc3OC)ccc1C21c2ccccc2C(=O)N1/N=C/c1ccc(OC)c(OC(=O)c2ccccc2OC)c1 (centres undefined) yields inhibition of 4.9

inhibition reported for this compound CCOc1ccc2c(c1)Oc1cc(OC(=O)c3ccccc3[N+](=O)[O-])ccc1C21c2ccccc2C(=O)N1/N=C/c1ccc(OC(=O)c2ccccc2[N+](=O)[O-])cc1 (centres undefined) : 13.2

// field: inhibition; key: CCOc1ccc2c(c1)Oc1cc(OC(=O)c3ccccc3Cl)ccc1C21c2ccccc2C(=O)N1/N=C/c1ccccc1OC (centres undefined) ; value = 7.8

compound CCOc1ccc2c(c1)Oc1cc(OC(=O)c3ccccc3Cl)ccc1C21c2ccccc2C(=O)N1/N=C/c1ccc(OC(=O)c2ccccc2Cl)cc1 (centres undefined) , inhibition observed: 13.1

Given item CCOc1ccc2c(c1)Oc1cc(OC(=O)c3ccccc3OC)ccc1C21c2ccccc2C(=O)N1/N=C/c1ccc(Cl)cc1 (centres undefined) , the value recorded as its inhibition is 6.5

Per the records, this compound ( CCOc1ccc2c(c1)Oc1cc(O)ccc1C21c2ccccc2C(=O)N1/N=C/c1ccc(OC)cc1 (centres undefined) ) has inhibition equal to 65

Kindly note the recorded inhibition for CCOc1ccc2c(c1)Oc1cc(O)ccc1C21c2ccccc2C(=O)N1/N=C/c1ccc(O)cc1 (centres undefined) , which is 73.8

Input CCOc1ccc2c(c1)Oc1cc(OC(=O)c3ccccc3Cl)ccc1C21c2ccccc2C(=O)N1/N=C/c1ccc(Cl)cc1 (centres undefined) . Output inhibition: 83.7

Sample CCOc1ccc2c(c1)Oc1cc(OC(=O)c3ccccc3OC)ccc1C21c2ccccc2C(=O)N1/N=C/c1ccccc1[N+](=O)[O-] (centres undefined) ; inhibition observed: 6.2

// recorded inhibition for CCOc1ccc2c(c1)Oc1cc(O)ccc1C21c2ccccc2C(=O)N1/N=C/c1ccccc1[N+](=O)[O-] (centres undefined) : 62.4

get_value(item= CCOc1ccc2c(c1)Oc1cc(O)ccc1C21c2ccccc2C(=O)N1/N=C/c1ccccc1OC (centres undefined) , readout=inhibition) returns 58.3

inhibition in this record for CCOc1ccc2c(c1)Oc1cc(OC(=O)c3ccccc3Cl)ccc1C21c2ccccc2C(=O)N1/N=C/c1ccccc1OC(=O)c1ccccc1Cl (centres undefined) : 11.1

According to the records, this compound CCOc1ccc2c(c1)Oc1cc(OC(=O)c3ccccc3[N+](=O)[O-])ccc1C21c2ccccc2C(=O)N1/N=C/c1ccccc1OC(=O)c1ccccc1[N+](=O)[O-] (centres undefined) displays inhibition of 25.7

Reported inhibition for CCOc1ccc2c(c1)Oc1cc(O)ccc1C21c2ccccc2C(=O)N1/N=C/c1ccc(Cl)cc1 (centres undefined) was 81.6
